These data points were gathered from patent US10953011B2.

Target: HDAC7 (Homo sapiens)
Sequence (Q8WUI4 whole entry): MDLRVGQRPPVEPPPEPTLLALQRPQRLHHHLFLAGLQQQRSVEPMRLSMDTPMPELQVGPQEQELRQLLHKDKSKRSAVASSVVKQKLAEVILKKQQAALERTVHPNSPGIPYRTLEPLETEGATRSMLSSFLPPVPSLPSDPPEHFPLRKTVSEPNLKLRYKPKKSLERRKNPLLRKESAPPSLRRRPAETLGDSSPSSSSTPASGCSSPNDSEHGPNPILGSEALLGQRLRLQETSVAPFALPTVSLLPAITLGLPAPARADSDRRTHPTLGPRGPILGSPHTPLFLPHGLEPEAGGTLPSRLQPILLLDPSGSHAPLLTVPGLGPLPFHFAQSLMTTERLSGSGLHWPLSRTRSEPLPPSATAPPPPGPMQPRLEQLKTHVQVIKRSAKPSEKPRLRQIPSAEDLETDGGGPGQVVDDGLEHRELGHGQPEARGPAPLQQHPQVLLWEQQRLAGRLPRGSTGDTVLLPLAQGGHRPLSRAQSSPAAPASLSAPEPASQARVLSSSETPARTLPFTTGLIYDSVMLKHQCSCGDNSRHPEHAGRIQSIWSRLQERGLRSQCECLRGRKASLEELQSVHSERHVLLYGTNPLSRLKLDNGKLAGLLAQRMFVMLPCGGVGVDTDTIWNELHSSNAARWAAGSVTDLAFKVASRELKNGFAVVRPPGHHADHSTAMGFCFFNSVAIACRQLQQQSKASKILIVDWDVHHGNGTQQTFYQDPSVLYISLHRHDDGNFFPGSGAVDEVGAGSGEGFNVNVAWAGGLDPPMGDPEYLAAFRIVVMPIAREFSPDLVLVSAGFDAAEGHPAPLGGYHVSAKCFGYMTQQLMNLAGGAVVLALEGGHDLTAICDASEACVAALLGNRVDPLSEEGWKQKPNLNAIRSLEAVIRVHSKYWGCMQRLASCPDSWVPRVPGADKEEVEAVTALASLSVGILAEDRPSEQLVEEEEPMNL
Assay: in vitro HDAC inhibition assay (fluorescence)
Format: biochemical
metric: IC50

## Task Name the recorded IC50 of the compound listed here: C/C=C1\NC(=O)[C@H]2CSSCC/C=C/[C@H](CC(=O)N[C@H](C(C)C)C(=O)N2)OC(=O)[C@H](C(C)C)NC1=O [FK228, romidepsin]
## Result > 100 µM

====

Test: Single dose pharmacokinetics of oral nanatinostat in patients
Type: in vivo, humans
Conditions: human, serum, 10 mg, B = 10 mg VRx-3996 p.o. and 450 mg Valganciclovir p.o., single dose, read-out: Half-Life (h), geometric mean (converted)
metric: half-life
A bare number is not enough; add the unit after it.

## Task Specify half-life for O=C(NO)c1cnc(N2C[C@@H]3[C@H](C2)[C@H]3NCc2ccc3cc(F)ccc3n2)nc1 and stop.
## Result 1.17 h

====

Assay: Single dose pharmacokinetics of oral nanatinostat in patients
Assay type: in vivo, humans
Conditions: human, serum, 10 mg, C = 10 mg VRx-3996 p.o. and 900 mg Valganciclovir p.o., single dose, read-out: AUClast (ng-h/mL), geometric mean
metric: AUC(0-t) (ng·h/mL)
Provide the reading as a plain figure in ng·h/mL.

## Task Give reported AUC(0-t) value for O=C(NO)c1cnc(N2C[C@@H]3[C@H](C2)[C@H]3NCc2ccc3cc(F)ccc3n2)nc1
## Result 227

====

Target: UniProt:Q96DB2
Sequence (Q96DB2 whole entry): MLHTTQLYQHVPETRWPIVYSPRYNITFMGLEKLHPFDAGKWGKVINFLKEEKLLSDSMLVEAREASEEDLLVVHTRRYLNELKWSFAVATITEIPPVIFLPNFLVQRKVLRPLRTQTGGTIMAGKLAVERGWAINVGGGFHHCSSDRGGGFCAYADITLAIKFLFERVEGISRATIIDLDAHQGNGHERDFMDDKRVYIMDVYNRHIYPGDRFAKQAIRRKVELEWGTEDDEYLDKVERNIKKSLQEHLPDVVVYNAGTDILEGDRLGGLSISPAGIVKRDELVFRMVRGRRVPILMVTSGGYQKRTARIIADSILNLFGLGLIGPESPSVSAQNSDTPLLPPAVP
Assay: in vitro HDAC inhibition assay (fluorescence)
Format: biochemical
Conditions: 1 h pre-incubation; 2 μM HDAC Substrate Class 2a; read-out: IC50 (μM) HDAC11
metric: IC50
Provide the measurement as a number trailed by its unit.

## Task Item O=C(NO)c1cnc(N2C[C@@H]3[C@H](C2)[C@H]3NCc2ccc3cc(F)ccc3n2)nc1 : provide IC50
## Result 2.8 µM

====

Target: UniProtKB Q9UKV0
Sequence (Q9UKV0 whole entry): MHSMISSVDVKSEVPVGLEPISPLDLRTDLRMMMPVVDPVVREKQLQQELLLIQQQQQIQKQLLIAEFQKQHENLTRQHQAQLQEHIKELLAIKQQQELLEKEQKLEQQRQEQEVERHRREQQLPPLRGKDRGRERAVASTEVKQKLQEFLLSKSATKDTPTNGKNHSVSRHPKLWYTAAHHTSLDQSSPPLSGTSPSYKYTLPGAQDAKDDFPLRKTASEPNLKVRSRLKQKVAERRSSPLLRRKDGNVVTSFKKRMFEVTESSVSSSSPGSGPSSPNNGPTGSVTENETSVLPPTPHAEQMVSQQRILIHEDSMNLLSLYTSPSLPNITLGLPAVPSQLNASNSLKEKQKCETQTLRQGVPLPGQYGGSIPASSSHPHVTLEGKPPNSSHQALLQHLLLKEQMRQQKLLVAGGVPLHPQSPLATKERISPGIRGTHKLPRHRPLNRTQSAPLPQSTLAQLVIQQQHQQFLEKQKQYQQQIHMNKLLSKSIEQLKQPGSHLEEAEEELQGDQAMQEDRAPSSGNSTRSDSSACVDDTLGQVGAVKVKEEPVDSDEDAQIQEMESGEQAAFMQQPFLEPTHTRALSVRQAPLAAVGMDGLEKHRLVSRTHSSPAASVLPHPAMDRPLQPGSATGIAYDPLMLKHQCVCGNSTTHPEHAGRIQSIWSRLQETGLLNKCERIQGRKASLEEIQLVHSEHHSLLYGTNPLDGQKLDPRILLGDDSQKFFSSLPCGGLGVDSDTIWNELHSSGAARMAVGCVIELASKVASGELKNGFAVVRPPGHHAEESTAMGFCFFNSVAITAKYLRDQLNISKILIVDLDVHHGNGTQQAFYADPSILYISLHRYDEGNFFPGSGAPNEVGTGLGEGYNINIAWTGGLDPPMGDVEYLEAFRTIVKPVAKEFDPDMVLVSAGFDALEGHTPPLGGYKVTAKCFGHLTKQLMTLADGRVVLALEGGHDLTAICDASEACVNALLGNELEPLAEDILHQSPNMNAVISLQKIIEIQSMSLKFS
Assay: in vitro HDAC inhibition assay (fluorescence)
Assay type: biochemical
pIC50: −log10 of the molar value.
metric: pIC50

## Task Would you please give the reported pIC50 of C/C=C1\NC(=O)[C@H]2CSSCC/C=C/[C@H](CC(=O)N[C@H](C(C)C)C(=O)N2)OC(=O)[C@H](C(C)C)NC1=O [FK228, romidepsin] with UniProtKB Q9UKV0?
## Result < 4.00

====

Target: HDAC5 (Homo sapiens, UniProt Q9UQL6)
Sequence (Q9UQL6 whole entry): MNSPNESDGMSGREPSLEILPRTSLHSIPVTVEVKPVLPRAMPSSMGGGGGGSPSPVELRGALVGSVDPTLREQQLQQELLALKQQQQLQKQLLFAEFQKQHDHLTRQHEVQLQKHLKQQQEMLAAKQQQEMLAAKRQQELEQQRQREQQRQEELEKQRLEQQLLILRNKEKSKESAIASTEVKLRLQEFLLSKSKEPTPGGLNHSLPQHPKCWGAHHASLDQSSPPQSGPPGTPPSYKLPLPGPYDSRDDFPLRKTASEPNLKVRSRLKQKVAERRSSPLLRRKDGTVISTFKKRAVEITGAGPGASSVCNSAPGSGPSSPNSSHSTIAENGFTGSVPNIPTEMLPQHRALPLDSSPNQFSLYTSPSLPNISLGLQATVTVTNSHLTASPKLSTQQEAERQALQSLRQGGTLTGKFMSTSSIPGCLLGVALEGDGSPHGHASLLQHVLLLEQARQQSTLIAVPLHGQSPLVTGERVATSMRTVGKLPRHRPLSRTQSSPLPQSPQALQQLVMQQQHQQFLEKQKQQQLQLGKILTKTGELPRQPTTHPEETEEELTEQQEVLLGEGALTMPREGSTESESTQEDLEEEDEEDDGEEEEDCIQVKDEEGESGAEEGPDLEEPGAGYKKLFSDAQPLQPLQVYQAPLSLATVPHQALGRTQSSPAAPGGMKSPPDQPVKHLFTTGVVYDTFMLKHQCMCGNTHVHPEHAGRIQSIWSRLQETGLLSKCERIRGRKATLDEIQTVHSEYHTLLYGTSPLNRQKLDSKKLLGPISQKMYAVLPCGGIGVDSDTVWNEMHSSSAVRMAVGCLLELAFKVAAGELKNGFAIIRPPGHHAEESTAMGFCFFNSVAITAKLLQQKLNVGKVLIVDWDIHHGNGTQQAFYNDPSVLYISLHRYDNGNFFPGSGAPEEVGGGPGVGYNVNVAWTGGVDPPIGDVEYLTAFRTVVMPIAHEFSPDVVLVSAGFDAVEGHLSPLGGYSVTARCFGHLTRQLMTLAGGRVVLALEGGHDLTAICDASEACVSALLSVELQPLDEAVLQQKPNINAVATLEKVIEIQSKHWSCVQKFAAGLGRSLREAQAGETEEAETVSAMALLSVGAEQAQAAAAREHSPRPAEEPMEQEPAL
Assay: in vitro HDAC inhibition assay (fluorescence)
Type: biochemical
Details: 1 h pre-incubation; 2 μM HDAC Substrate Class 2a; read-out: IC50 (μM) HDAC5
metric: IC50
Put your answer as a value accompanied by its unit after it.

## Task Could you please provide reported IC50 for O=C(NO)c1cnc(N2C[C@@H]3[C@H](C2)[C@H]3NCc2ccc3cc(F)ccc3n2)nc1 ? Thanks!
## Result 0.39 µM

====

Test: Single dose pharmacokinetics of oral nanatinostat in patients
Format: in vivo, humans
Details: human, serum, 10 mg, B = 10 mg VRx-3996 p.o. and 450 mg Valganciclovir p.o., single dose, read-out: AUC (ng-h/mL), geometric mean
metric: AUC

## Task Input O=C(NO)c1cnc(N2C[C@@H]3[C@H](C2)[C@H]3NCc2ccc3cc(F)ccc3n2)nc1 , output reported AUC.
## Result 317 ng·h/mL

====

Assay: Single dose pharmacokinetics of oral nanatinostat in patients
Type: in vivo, humans
Conditions: human, serum, humans, oral, summary of Table 6, read-out: T1/2 (converted)
metric: half-life

## Task Recall and state the measured half-life for O=C(NO)c1cnc(N2C[C@@H]3[C@H](C2)[C@H]3NCc2ccc3cc(F)ccc3n2)nc1 .
## Result ~2 h
